# maps each entry to its koff
- Target desc: T1, recombinant HHLA2-His (UniProt Q9UM44 23-344, limits assumed)
- T1 construct: Analyte in the Biacore assay; also called HHLA2-His analyte; not shown: His tag
- T1 sequence (looked up): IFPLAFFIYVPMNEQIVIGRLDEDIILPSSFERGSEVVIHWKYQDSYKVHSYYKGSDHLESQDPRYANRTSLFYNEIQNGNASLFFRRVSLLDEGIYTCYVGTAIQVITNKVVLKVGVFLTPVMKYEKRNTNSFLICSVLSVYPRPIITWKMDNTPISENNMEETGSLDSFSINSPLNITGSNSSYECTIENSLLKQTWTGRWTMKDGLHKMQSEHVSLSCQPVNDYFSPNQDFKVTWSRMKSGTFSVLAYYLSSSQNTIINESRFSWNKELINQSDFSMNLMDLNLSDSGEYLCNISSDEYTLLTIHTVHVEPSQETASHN
- Assay details: SPR (Biacore, Cytiva); antibody captured on CM5 chip, HHLA2-His as analyte; monovalent
Record the value in s⁻¹, omitting the unit from your answer.

Binder: Ab-65885 (antibody, human IgG1, kappa, V domains shown, tested as IgG) VH: QVQLVQSGAEVKKPGASVKVSCKASGYTFDSYKMHWVRQAPGQRLEWMGYIPAGTGNTKYSQKFQGRVTITRDTSASTAYMELSSLRSEDTAVYYCARDRGGYYYDSWDDWGQGTLVTVSS VL: DIQMTQSPSSLSASVGDRVTITCRASQSISSYLNWYQQKPGKAPKLLIYGASSLQSGVPSRFSGSGSGTDFTLTISSLQPEDFATYYCQQVAFTPPTFGGGTKVEIKR
Observable: koff
Experimental value: 0.00205
--
Binder: Ab-65887 (antibody, human IgG1, kappa, V domains shown, tested as IgG) VH: QVQLVQSGAEVKKPGASVKVSCKASGYTFEQYAMHWVRQAPGQRLEWMGFIPAGTGNTKYSQKFQGRVTITRDTSASTAYMELSSLRSEDTAVYYCARDRGGYWYDSWDDWGQGTLVTVSS VL: DIQMTQSPSSLSASVGDRVTITCRASQSISSYLNWYQQKPGKAPKLLIYGASSLQSGVPSRFSGSGSGTDFTLTISSLQPEDFATYYCQQVVFTPPTFGGGTKVEIKR
Observable: koff
Experimental value: 0.0148
--
Binder: Ab-65890 (antibody, human IgG1, V domains shown, tested as IgG) VH: QVQLVQSGAEVKKPGASVKVSCKASGYTFNSYRMHWVRQAPGQRLEWMGSIPAGTGNTVYSQKFQGRVTITRDTSASTAYMELSSLRSEDTAVYYCARDRGGYYYDSWDDWGQGTLVTVSS VL: DIQMTQSPSSLSASVGDRVTITCRASQSISSYLNWYQQKPGKAPKLLIYGASSLQSGVPSRFSGSGSGTDFTLTISSLQPEDFATYYCQQVPFEPPTFGGGTKVEIK
Observable: koff
Experimental value: 9.28e-05
--
Binder: Ab-65889 (antibody, human IgG1, kappa, V domains shown, tested as IgG) VH: QVQLVQSGAEVKKPGASVKVSCKASGYTFASYKMHWVRQAPGQRLEWMGDIPAGTGNTHYSQKFQGRVTITRDTSASTAYMELSSLRSEDTAVYYCARDRGGYYYDSWDDWGQGTLVTVSS VL: DIQMTQSPSSLSASVGDRVTITCRASQSISSYLNWYQQKPGKAPKLLIYGASSLQSGVPSRFSGSGSGTDFTLTISSLQPEDFATYYCQQVPFEPPTFGGGTKVEIKR
Observable: koff
Experimental value: 0.000114

// switching to the query binder
Item under review: Ab-65886 (antibody, human IgG1, kappa, V domains shown, tested as IgG) VH: QVQLVQSGAEVKKPGASVKVSCKASGYTFEKYAMHWVRQAPGQRLEWMGFIPAGTGNTKYSQKFQGRVTITRDTSASTAYMELSSLRSEDTAVYYCARDRGGYYYDSWDDWGQGTLVTVSS VL: DIQMTQSPSSLSASVGDRVTITCRASQSISSYLNWYQQKPGKAPKLLIYGASSLQSGVPSRFSGSGSGTDFTLTISSLQPEDFATYYCQQVAFTPPTFGGGTKVEIKR . Reported koff?
0.00688
